Values were extracted from PubChem BioAssay AID248.

- Test system: L1210 leukemia ip in BDF1 mice, survival T/C
- assay-name: NCI In Vivo Anticancer Drug Screen. Data for tumor model L1210 Leukemia (intraperitoneal) in B6D2F1 (BDF1) mice
- setup-conditions: endpoint: mean survival time; dose: 200.0 mg/kg/injection; schedule: Q01DX001 (ip); vehicle: carboxymethylcellulose (CMC); higher = longer survival
Toxic doses and inconclusive results are not listed.
reported-metric: T/C

Give the measured T/C of CCOC(=O)C(Cc1ccc(O)cc1)Nc1nc2ccccc2o1 (centres undefined) .
96 % of control

Quick one: T/C for CCc1ccc(N=Nc2c(F)c(F)c(NC(C)=O)c(F)c2F)cc1 ?
91 % of control

Endpoint output: T/C of O=[N+]([O-])c1cc(S(=O)(=O)Oc2ccccc2)ccc1Cl . Value?
100 % of control

Find the recorded T/C belonging to COc1ccc(C(=O)C(C)C(C)=N)c(OCc2ccccc2)c1OC (centres undefined) and report it.
92 % of control

Entry O=C1c2ccccc2-c2cc(Br)c([N+](=O)[O-])c(Br)c21 : reported T/C = ?
101 % of control

Form field: reported T/C of CN1CCC(CNC(=O)c2ccccc2)c2ccccc21 (centres undefined)
92 % of control

// query T/C value for entry CCN1CC(=O)N(C)C1=S
97 % of control

I am curious: what T/C value has been reported for c1ccn2nncc2c1 ?
90 % of control

// returns reported T/C for input CCOC=Nc1cc(-n2cnc3c(Cl)ncnc32)ccc1C
98 % of control
